System: tetrabenazine-induced sedation and depression in mice
Assay: Antagonism of tetrabenazine-induced depression in mice, orally
Type: in vivo, female white mice (Carworth CF1 S)
Details: Mus musculus; oral; 1 hr post drug, 30 minutes after tetrabenazine 32 mg/kg intraperitoneally; female mice; read-out: ED50 for prevention of ptosis
Structures can show the parent of a compound that is named as a salt.
Record form. Attribute: ED50. Fill in for each entry.
Numbers only, in mg/kg.

compound	value
CC(=O)CCN1CCC2C3c4ccccc4C(c4ccccc43)C2C1 (racemic)	2.1

Take each entry in turn and give its ED50.
1. CN(C)CCC=C1c2ccccc2CCc2ccccc21 [Amitriptyline, reference compound]
2. CCOC(=O)CCN1CCC2C3c4ccccc4C(c4ccccc43)C2C1 (racemic)
3. c1ccc(C(CN2CCC3C4c5ccccc5C(c5ccccc54)C3C2)c2ccccc2)cc1 (racemic) [R=CH2 CH(C6 H5)2, R1=H, R2=H, R3=H, R4=H, hydrochloride]

1
8.1
12

Take each entry in turn and give its ED50.
1. CC(O)CCN1CCC2C3c4ccccc4C(c4ccccc43)C2C1 (stereo not drawn)
2. c1ccc(OCCN2CCC3C4c5ccccc5C(c5ccccc54)C3C2)cc1 (stereo not drawn)
3. c1ccc2c(c1)C1c3ccccc3C2C2CNCCC12 (racemic) [R=H, R1=H, R2=H, R3=H, R4=H, Hydrochloride]
4. CN1CCC2C3c4ccccc4C(c4ccccc43)C2C1 (racemic) [R=CH3, R1=H, R2=H, R3=H, R4=H, Hydrochloride]
5. c1ccc(CCN2CCC3C4c5ccccc5C(c5ccccc54)C3C2)cc1 (racemic) [R=CH2 CH2 C6 H5, R1=H, R2=H, R3=H, R4=H, hydrochloride hemihydrate]

[4.9, 10.8, 0.41, 1, 11.8]

====

Tested on: tetrabenazine-induced sedation and depression in mice
Experiment: Antagonism of tetrabenazine-induced depression in mice, orally
Assay type: in vivo, female white mice (Carworth CF1 S)
Conditions: Mus musculus; oral; 1 hr post drug, 30 minutes after tetrabenazine 32 mg/kg intraperitoneally; female mice; read-out: ED50 for prevention of ptosis
Counter-ions that a name gives are not always drawn.
Record form. Attribute: ED50. Fill in for each entry.
Number first, unit second: that is the form wanted.

# count of solved cases: 2
> print(dat)
                                   compound       value
1  CCCCN1CCC2C3c4ccccc4C(c4ccccc43)C2C1 (racemic)  11.2 mg/kg
2  CCOC(=O)N1CCC2C3c4ccccc4C(c4ccccc43)C2C1 (racemic)   2.1 mg/kg

Consider the additional compound presented here.
Please give measured ED50 of the following entry: O=C(O)CCN1CCC2C3c4ccccc4C(c4ccccc43)C2C1 (racemic) [R=CH2 CH2 COOH, R1=H, R2=H, R3=H, R4=H, Hydrochloride]
15 mg/kg
